# target_or_system: HLA-A2.1 (Homo sapiens, UniProt P04439, D140Y/D185E/D98H/E176V/E277Q/G131W/G231S/I119V/I121R/I166T/I218V/L300P/L318F/N151K/N90K/P208A/P217A/Q86G/Q94H/R138H/R169H/T345S)
# Construct: endogenous in cells; host or cells: 174CEM.T2
# Type: cell-based
# reported_conditions: HPV18 peptides; 200 μg/ml peptide, 16 hours, 174CEM.T2 cells; background set on 0; binding positive when ≧0.5
# note: boundary value 0.8 maps to false; FI (Fluorescence Index) below it maps to true

> print(dat)
                             input.sequence  label.value
1  SLQDIEITC [HPV18 peptide 2, residues 24-32 of HPV18 protein E6]         true
2  KTVLELTEV [HPV18 peptide 5, residues 36-44 of HPV18 protein E6]        false
3  FAFKDLFVV [HPV18 peptide 7, residues 47-55 of HPV18 protein E6]        false

## Input Does the reported FI (Fluorescence Index) of LTNTGLYNL [HPV18 peptide 9, residues 93-101 of HPV18 protein E6] stay below 0.8?
## Output false

## Input Does the reported FI (Fluorescence Index) of KLPDLCTEL [HPV18 peptide 1, residues 13-21 of HPV18 protein E6] stay below 0.8?
## Output false

## Input Does the reported FI (Fluorescence Index) of DTLEKLTNT [HPV18 peptide 8, residues 88-96 of HPV18 protein E6] stay below 0.8?
## Output true

## Input Does the reported FI (Fluorescence Index) of LSFVCPWCA [HPV18 peptide 14, residues 94-102 of HPV18 protein E7] stay below 0.8?
## Output false

## Input Does the reported FI (Fluorescence Index) of LFLNTLSFV [HPV18 peptide 13, residues 89-97 of HPV18 protein E7] stay below 0.8?
## Output false

## Input Does the reported FI (Fluorescence Index) of EITCVYCKT [HPV18 peptide 4, residues 29-37 of HPV18 protein E6] stay below 0.8?
## Output true
